- ASSAY EXPLANATION: Food effect part
- Format: in vivo, human (healthy adult subjects)
- CONDITION SUMMARY: both, human, plasma, oral, geometric mean of tadalafil C max under fed conditions, FDC formulation, fed
PROPERTY NAME: Cmax (ng/mL)
Numbers only, in ng/mL.

Prompt: Requested field: Cmax. Item: CN1CC(=O)N2[C@H](c3ccc4c(c3)OCO4)c3[nH]c4ccccc4c3C[C@@H]2C1=O [Tadalafil]
Completion: 666

====

- ASSAY EXPLANATION: Bioequivalence part
- Format: in vivo, human (healthy adult subjects)
- CONDITION SUMMARY: both, human, plasma, oral, AUC0–∞, Group 1, free combination, fasted (Treatment B); mean (SD)
Give measured AUC(0-inf) for each item. Keep answers brief.
One number for each entry, in ng·h/mL.

I'm hoping you can list AUC(0-inf) for every compound here, please.
1. CN1CC(=O)N2[C@H](c3ccc4c(c3)OCO4)c3[nH]c4ccccc4c3C[C@@H]2C1=O
2. CCCNS(=O)(=O)Nc1ncnc(OCCOc2ncc(Br)cn2)c1-c1ccc(Br)cc1
3. NS(=O)(=O)Nc1ncnc(OCCOc2ncc(Br)cn2)c1-c1ccc(Br)cc1

Completion:
1: 20900; 2: 5900; 3: 22500

====

- ASSAY EXPLANATION: Bioequivalence part
- Assay type: in vivo, human (healthy adult subjects)
- CONDITION SUMMARY: both, human, plasma, oral
PROPERTY NAME: half-life (h)
One number for each entry, in h.

Prompt: Requested field: half-life. Item: "CCCNS(=O)(=O)Nc1ncnc(OCCOc2ncc(Br)cn2)c1-c1ccc(Br)cc1"
Completion: 14.6
